Attribution: patent US20230407373A1

system: HCoV-OC43 gRNA and sgRNA; type: binding; details: type n_48_v; 48 hpi; OC43 Probe II capture on infected cells
attribute-measured: target (unweighted spectral count, OC43 Probe II)
Output spec: single numeric token, no unit.

// lookup target (unweighted spectral count, OC43 Probe II) for CIRBP: host protein, UniProt Q14011 (protein, UniProt Q14011 1-172, looked up) Cold-inducible RNA-binding …: MASDEGKLFVGGLSFDTNEQSLEQVFSKYGQISEVVVVKDRETQRSRGFGFVTFENIDDAKDAMMAMNGKSVDGRQIRVDQAGKSSDNRSRGYRGGSAGGRGFFRGGRGRGRGFSRGGGDRGYGGNRFESRSGGYGGSRDYYSSRSQSGGYSDRSSGGSYRDSYDSYATHNE
12

Continue with the molecule presented below.
// lookup target (unweighted spectral count, OC43 Probe II) for RBMX (protein, UniProt P38159 1-391, looked up) RNA-binding motif protein, X …: MVEADRPGKLFIGGLNTETNEKALEAVFGKYGRIVEVLLMKDRETNKSRGFAFVTFESPADAKDAARDMNGKSLDGKAIKVEQATKPSFESGRRGPPPPPRSRGPPRGLRGGRGGSGGTRGPPSRGGHMDDGGYSMNFNMSSSRGPLPVKRGPPPRSGGPPPKRSAPSGPVRSSSGMGGRAPVSRGRDSYGGPPRREPLPSRRDVYLSPRDDGYSTKDSYSSRDYPSSRDTRDYAPPPRDYTYRDYGHSSSRDDYPSRGYSDRDGYGRDRDYSDHPSGGSYRDSYESYGNSRSAPPTRGPPPSYGGSSRYDDYSSSRDGYGGSRDSYSSSRSDLYSSGRDRVGRQERGLPPSMERGYPPPRDSYSSSSRGAPRGGGRGGSRSDRGGGRSRY
20
